SUBJECT_OF_TEST: T1, CCR1 on HEK293 cells / HEK293 membranes stably expressing CCR1 (UniProt P32246 1-355, limits assumed)
T1 construct: whole, on cells; also called chemokine receptor CCR1
T1 sequence (looked up): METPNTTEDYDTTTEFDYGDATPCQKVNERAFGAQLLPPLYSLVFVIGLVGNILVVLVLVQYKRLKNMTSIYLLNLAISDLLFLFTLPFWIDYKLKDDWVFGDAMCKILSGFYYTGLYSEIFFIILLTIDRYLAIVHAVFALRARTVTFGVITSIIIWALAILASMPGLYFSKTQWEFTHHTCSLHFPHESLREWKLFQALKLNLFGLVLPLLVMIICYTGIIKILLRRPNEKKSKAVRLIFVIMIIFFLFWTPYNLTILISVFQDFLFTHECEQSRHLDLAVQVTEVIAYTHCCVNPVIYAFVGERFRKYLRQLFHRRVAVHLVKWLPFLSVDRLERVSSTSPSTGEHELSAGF
METHOD_NOTES: SPA competition assay, HEK293 cells/membranes expressing CCR1; competitor (tracer) CCL3-biotin with 125I-streptavidin
Experimental: Scintillation proximity assay (SPA) binding assays (GE Healthcare, Piscataway, N.J.) were conducted essentially as previously described. HEK293 cells stably expressing CCR1 were used for these assays, and untransfected HEK293 cells were used as a control. Assays were undertaken in a 96-well plate format and each data point was assayed in triplicate on a Microbeta plate counter (Perkin Elmer) for 1 min per well. […]
pIC50: −log10 of the molar value.
OBSERVED_PROPERTY: pIC50

CCL14 (unlabeled; functional form containing residues 9-74) (ligand, Whether the entry is already trimmed to 9-74 is so no residue range is applied; Expressed as a His-ubiquitin fusion and cleaved with Usp2-cc to leave the native N-terminus; also called CCL14/HCC-1; HCC-1 (9-74)) GPYHPSECCFTYTTYKIPRQRIMDYYETNSQCSKPGIVFITKRGHSVCTNPSDKWVQDYIKDMKEN : 9.05
